measurementTarget: pooled human IgG (human IgG1,2,3 and 4)
We begin with a simple list: items and their reported Enzyme activity endpoint: scIgG.
Reply with just the number (in ng/µL).

Asked: // Enzyme activity endpoint: scIgG lookup, key: PRT-570 (protein) MANQEIRYSEATPSHITSVWTKGVTPPEQFIQNEDVLHAPYIANQGWYDITKTFNGKDDLLCGAATAGNMLHWWFDQNKEQIEAYLKKHPEKQKINFNGEQMFDVKEAIDTKDSQTDSALFNYFKDKAFPYLSTKHLGVFPDHVIDMFINGYRLSLTNHGPTPVKEQTKDPRGGIFDAVFTRGDQSKLLTSRHDFKEKTLKEISQLIKQELTEGKALGLSHTYANVRINHVINLWGADFNAEGNLEAIYVTDSDSNASIGMKKYYVGVNSAGKVAISAKEIEGDNIGAQVLGLFTLSTGQDIWQQTNLEHHHHHH
Given back: 0
